pIC50: −log10 of the molar value.
Read-out record for UniProt O42275: pIC50
Sequence (O42275 whole entry): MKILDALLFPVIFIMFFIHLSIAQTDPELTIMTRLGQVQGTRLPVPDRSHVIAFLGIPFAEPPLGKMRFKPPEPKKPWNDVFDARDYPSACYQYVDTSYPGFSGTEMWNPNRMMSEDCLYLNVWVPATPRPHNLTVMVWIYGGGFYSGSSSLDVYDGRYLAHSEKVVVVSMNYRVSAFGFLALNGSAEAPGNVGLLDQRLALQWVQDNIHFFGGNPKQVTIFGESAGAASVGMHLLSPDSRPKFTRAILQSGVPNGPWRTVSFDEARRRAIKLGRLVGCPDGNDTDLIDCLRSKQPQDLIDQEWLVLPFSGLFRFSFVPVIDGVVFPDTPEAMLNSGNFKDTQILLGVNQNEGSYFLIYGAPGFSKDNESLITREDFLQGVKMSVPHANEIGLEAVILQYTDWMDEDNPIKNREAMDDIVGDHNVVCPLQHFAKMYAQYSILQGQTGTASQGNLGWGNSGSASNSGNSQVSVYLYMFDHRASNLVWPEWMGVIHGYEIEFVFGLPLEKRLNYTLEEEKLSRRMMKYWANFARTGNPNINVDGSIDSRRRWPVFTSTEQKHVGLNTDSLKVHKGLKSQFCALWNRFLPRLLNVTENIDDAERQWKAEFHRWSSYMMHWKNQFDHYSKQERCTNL
value kind: pIC50

CCCCCCNc1c2c(nc3cc(Cl)ccc13)CCCC2 = 7.58
Cc1cccc(Nc2ccccc2C(=O)NCCCC(=O)NCCCCCCCNc2c3c(nc4cc(Cl)ccc24)CCCC3)c1C = 8.18
Cc1cccc(Nc2ccccc2C(=O)NCCCCCCCCNc2c3c(nc4cc(Cl)ccc24)CCCC3)c1C = 8.83
Cc1cccc(Nc2ccccc2C(=O)NCCC(=O)NCCCCCCCNc2c3c(nc4cc(Cl)ccc24)CCCC3)c1C = 8.00
NCCCCCCCCCCCCNc1c2c(nc3cc(Cl)ccc13)CCCC2 = 8.84
NCCCCCCNc1c2c(nc3cc(Cl)ccc13)CCCC2 = 8.11
OCCCCCCNc1c2c(nc3cc(Cl)ccc13)CCCC2 = 8.61
NCCCCCCCCNc1c2c(nc3cc(Cl)ccc13)CCCC2 = 6.53
NCCCCCCCCCCNc1c2c(nc3cc(Cl)ccc13)CCCC2 = 8.66
NCCCCNc1c2c(nc3cc(Cl)ccc13)CCCC2 = 7.18
Cc1cccc(Nc2ccccc2C(=O)NCCCCCC(=O)NCCCCNc2c3c(nc4cc(Cl)ccc24)CCCC3)c1C = 9.52
